- tested target: EGFR L858R kinase domain (Homo sapiens (Human), UniProt P00533, L858R)
- Sequence (P00533 669-1210 L858R): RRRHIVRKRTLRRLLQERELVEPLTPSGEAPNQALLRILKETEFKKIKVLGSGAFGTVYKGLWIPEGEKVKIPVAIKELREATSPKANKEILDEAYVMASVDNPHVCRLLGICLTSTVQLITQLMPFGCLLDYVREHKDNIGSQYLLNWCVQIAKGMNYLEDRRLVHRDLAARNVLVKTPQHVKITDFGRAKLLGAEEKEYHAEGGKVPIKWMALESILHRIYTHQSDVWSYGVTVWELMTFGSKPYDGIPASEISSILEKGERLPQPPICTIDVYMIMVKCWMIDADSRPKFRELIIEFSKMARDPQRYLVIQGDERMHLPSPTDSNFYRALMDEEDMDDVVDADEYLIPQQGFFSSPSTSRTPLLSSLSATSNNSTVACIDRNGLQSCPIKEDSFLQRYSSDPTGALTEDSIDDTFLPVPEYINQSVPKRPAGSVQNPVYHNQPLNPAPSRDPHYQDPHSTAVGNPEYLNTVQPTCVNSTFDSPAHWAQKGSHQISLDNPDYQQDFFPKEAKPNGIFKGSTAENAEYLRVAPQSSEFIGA
- assay notes: EGFR enzymatic assay, TR-FRET, EGFR L858R
reported endpoint: IC50 (nM)

- compound: "O=C1CCc2c(Oc3ccc4c(c3)[C@H]3[C@H](NC(=O)Cc5cccc(C(F)(F)F)c5)[C@H]3O4)ccnc2N1"
  unit of measurement: "nM"
  IC50: 949

a: CCN1CCN(Cc2ccc(C(=O)N[C@@H]3[C@H]4Oc5ccc(Oc6ccnc7c6COC(=O)N7)cc5[C@@H]34)cc2C(F)(F)F)CC1
b: O=C1CCc2c(Oc3ccc4c(c3)[C@H]3[C@H](NC(=O)c5ccnc(C(F)(F)F)c5)[C@H]3O4)ccnc2N1
c: CN1CCN(Cc2ccc(C(=O)N[C@@H]3[C@H]4Oc5ccc(Oc6ccnc7c6CCC(=O)N7)cc5[C@@H]34)cc2C(F)(F)F)CC1
Query: List these items ordered by IC50, big to small. # list labels per requested ordering
Reply: b, a, c
(b: 76 nM, a: 0.38 nM, c: 0.079 nM)

a: CCN1CCN(Cc2ccc(C(=O)N[C@@H]3[C@H]4Oc5ccc(Oc6ccnc7c6CNC(=O)N7)cc5[C@@H]34)cc2C(F)(F)F)CC1
b: O=C1CCc2c(Oc3ccc4c(c3)[C@H]3[C@H](NC(=O)c5ccccc5C(F)(F)F)[C@H]3O4)ccnc2N1
Query: For a and b , which recorded IC50 is lower? Which one? Tell me its label.
Reply: a

----------
- tested target: wild type B-Raf (Homo sapiens (Human))
- Sequence (P15056 whole entry): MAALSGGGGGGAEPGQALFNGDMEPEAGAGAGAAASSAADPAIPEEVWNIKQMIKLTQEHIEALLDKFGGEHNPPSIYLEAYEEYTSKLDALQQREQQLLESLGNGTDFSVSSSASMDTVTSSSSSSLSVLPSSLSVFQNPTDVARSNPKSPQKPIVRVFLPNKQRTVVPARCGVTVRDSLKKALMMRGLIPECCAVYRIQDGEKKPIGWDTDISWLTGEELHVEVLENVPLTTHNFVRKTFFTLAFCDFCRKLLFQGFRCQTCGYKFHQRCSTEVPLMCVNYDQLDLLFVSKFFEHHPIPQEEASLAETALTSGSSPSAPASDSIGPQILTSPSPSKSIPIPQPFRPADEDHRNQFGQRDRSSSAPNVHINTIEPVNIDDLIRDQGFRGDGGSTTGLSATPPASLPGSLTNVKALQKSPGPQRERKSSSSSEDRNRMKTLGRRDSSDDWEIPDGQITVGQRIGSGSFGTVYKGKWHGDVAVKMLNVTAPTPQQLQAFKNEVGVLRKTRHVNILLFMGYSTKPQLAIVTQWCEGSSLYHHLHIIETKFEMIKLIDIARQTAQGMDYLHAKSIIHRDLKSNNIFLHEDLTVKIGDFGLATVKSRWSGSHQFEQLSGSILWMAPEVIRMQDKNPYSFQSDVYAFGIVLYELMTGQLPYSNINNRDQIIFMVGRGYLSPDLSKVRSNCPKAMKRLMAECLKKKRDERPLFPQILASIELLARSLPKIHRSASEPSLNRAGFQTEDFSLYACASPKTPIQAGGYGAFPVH
- assay notes: WT BRaf IC50 assay, TR-FRET
- Type: biochemical
- Set-up: scale not given here
- test settings: at 100 nM compound, Km ATP
reported endpoint: Braf-WT Km ATP, % at 100 nM (% at 100 nM)

- molecule: "O=C1CCc2c(Oc3ccc4c(c3)[C@H]3[C@H](NC(=O)c5ccc(C(F)(F)F)c(F)c5)[C@H]3O4)ccnc2N1 [Compound 1.42]"
  recorded result: 102
- molecule: "Cc1cccc(F)c1C(=O)N[C@@H]1[C@H]2Oc3ccc(Oc4ccnc5c4CCC(=O)N5)cc3[C@@H]12 [Compound 1.37]"
  recorded result: 80
- molecule: "O=C1CCc2c(Oc3ccc4c(c3)[C@H]3[C@H](NC(=O)c5ccccc5F)[C@H]3O4)ccnc2N1 [Compound 1.38]"
  recorded result: 84
- molecule: "O=C(/C=C/c1cccc(C(F)(F)F)c1)N[C@@H]1[C@H]2Oc3ccc(Oc4ccnc5c4CCC(=O)N5)cc3[C@@H]12 [Compound 1.53]"
  recorded result: 86
- molecule: "O=C1CCc2c(Oc3ccc4c(c3)[C@H]3[C@H](NC(=O)c5ccc(F)cc5)[C@H]3O4)ccnc2N1 [Compound 1.36]"
  recorded result: 96

1: O=C1CCc2c(Oc3ccc4c(c3)[C@H]3[C@H](NC(=O)c5ccc(-c6ccccc6)o5)[C@H]3O4)ccnc2N1 [Compound 1.54]
2: N[C@@H]1[C@H]2Oc3ccc(Oc4ccnc5c4CCC(=O)N5)cc3[C@@H]12 [Intermediate I]
Query: Pick one, 1 or 2 : lowest reported Braf-WT Km ATP, % at 100 nM. # answer = label of selected item
Reply: 2
(2: −2 % at 100 nM, 1: 93 % at 100 nM)

----------
- tested target: wild type B-Raf (Homo sapiens (Human))
- assay notes: WT BRaf IC50 assay, TR-FRET
- Type: biochemical
- test settings: IC50 Braf-WT […] ATP, […] ATP
reported endpoint: IC50 (nM)

- record smiles: "CN1CCN(Cc2ccc(C(=O)N[C@@H]3[C@H]4Oc5ccc(Oc6ccnc7c6CCC(=O)N7)cc5[C@@H]34)cc2C(F)(F)F)CC1"
  recorded result: 36
- record smiles: "O=C1CCc2c(Oc3ccc4c(c3)[C@H]3[C@H](NC(=O)c5ccc(CN6CCN7CCC[C@@H]7C6)c(C(F)(F)F)c5)[C@H]3O4)ccnc2N1"
  recorded result: 33

A: CCN1CCN(Cc2cc(C(=O)N[C@@H]3[C@H]4Oc5ccc(Oc6ccnc7c6CCC(=O)N7)cc5[C@@H]34)cc(C(F)(F)F)c2)CC1
B: CC(C)(N)c1cc(C(=O)N[C@@H]2[C@H]3Oc4ccc(Oc5ccnc6c5CCC(=O)N6)cc4[C@@H]23)cc(C(F)(F)F)c1
Query: Could you point out whether the larger IC50 belongs to A or to B ? Select an item and report its label.
Reply: A
(A: 39 nM, B: 3.4 nM)
